Test system: H4
Assay: Luminescence Cell-Based Dose Response HTS to Identify Activators of 5'UTR Stem-Loop Driven Prion Protein mRNA Translation in H4 Neuroglioblastoma Cells. [Related pubchem assays: 1829 (Project Summary), 1814 (Primary HTS)]
Type: functional
Conditions: Homo sapiens
The source made the active and inactive calls. Cut-off read from the data, not from the text of the source: actives have a measured EC50 and inactives only a lower limit.
Recorded measurements of EC50, one per entry

1. O=C(O)CSc1nc2sc3c(c2c(=O)n1Cc1ccccc1)CCCCC3 = 16.4 µM (active)

Item CC1CCC(NC(=O)N(CCCl)N=O)CC1 (stereo unspecified) has what recorded EC50?
16.2 µM (active)

Item O=C(N/N=C/c1sc(=O)n(-c2ccccc2)c1Cl)c1ccccc1 has what recorded EC50?
34.9 µM (inconclusive)

Item CN1CCC(=NNC(=O)C(=O)Nc2ccc(F)cc2)CC1 has what recorded EC50?
15 µM (active)

Item O=C1CCCCCN1Cc1nnc(SCc2nc3ccccc3s2)n1-c1ccccn1 has what recorded EC50?
80.9 µM (inconclusive)

Item CCn1c(C(=O)OC)cc2c1ccn2-c1ccc(F)cc1 has what recorded EC50?
> 120 µM (not active)
